Assay: High Content Assay for Compounds that inhibit the Assembly of the Perinucleolar Compartment;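 further: plate controls were DMSO wells for no effect and camptothecin positive control wells for full effect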
Conditions: PC3M PTB-GFP, PNC prevalence imaging, 16 h; at 10 µM; stronger effect = lower value
Among all 140,000 compounds or so, about 4,300 (3.1%) were called active. Inconclusive results (about 21%) are left out. This is one part of a sample in which actives are shown more often than they occur.
QUANTITY_MEASURED: activity change (PNC), negative = inhibition (%)
Give just the number in %; leave the unit off.

State, in one line, measured activity change (PNC), negative = inhibition of `NS(=O)(=O)c1ccc(CCNC(=S)Nc2ccc(S(N)(=O)=O)cc2)cc1`
74.6

State, in one line, measured activity change (PNC), negative = inhibition of CSCCC(Nc1ccc(S(=O)(=O)N2CCOCC2)cc1[N+](=O)[O-])C(=O)OCC(=O)N(C(C)C)C(C)C (stereo not given)
-25.5

State, in one line, measured activity change (PNC), negative = inhibition of `COc1ccc(CC(=O)Nc2ccc(C(=O)NC(C)(C)C)cc2)cc1`
-85

State, in one line, measured activity change (PNC), negative = inhibition of `COc1ccc(-c2ccnc(SCC(=O)N3CCOCC3)n2)cc1`
-100

State, in one line, measured activity change (PNC), negative = inhibition of `Cc1ccc(NC(=O)CSCC(=O)NC2CCCCC2)cc1`
13.8

State, in one line, measured activity change (PNC), negative = inhibition of `O=C(CCCN1C(=O)c2cccc3cccc(c23)C1=O)N1CCN(Cc2ccc3c(c2)OCO3)CC1`
-24.4

State, in one line, measured activity change (PNC), negative = inhibition of CCC(C)(C)C1CCC(=NNC(=O)c2ccc(Br)o2)CC1 (stereo not given)
-3.73

State, in one line, measured activity change (PNC), negative = inhibition of `COc1ccc(NC(=O)CN(Cc2ccccc2)S(C)(=O)=O)cc1OC`
-0.222

State, in one line, measured activity change (PNC), negative = inhibition of `CCn1c(COc2cccc(OC)c2)nnc1SCC(=O)N1CCOCC1`
-11.5

State, in one line, measured activity change (PNC), negative = inhibition of `COc1ccc(C(=O)Nc2ccc(CN3CCOCC3)cc2)cc1`
-12.7

---

Assay: High Content Assay for Compounds that inhibit the Assembly of the Perinucleolar Compartment;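 further: plate controls were DMSO wells for no effect and camptothecin positive control wells for full effect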
Details: PC3M PTB-GFP, PNC prevalence imaging, 16 h; at 10 µM
Among all 140,000 compounds or so, about 4,300 (3.1%) were called active. Not shown: some 21% with an inconclusive outcome.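 The calls were made as follows: active = readout at or below -70, meaning at least 70% loss of cells showing the perinucleolar compartment, a nuclear body marking cancer cells; inconclusive = readout between -30 and a set limit; inactive = the rest.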 The sample as a whole holds a higher share of actives than the screen did.
Give one outcome, nothing more. List: active, inactive

Identify the outcome logged in this assay for the compound shown: COc1ccc(C2CC(=O)Nc3cc(C)c(C)cc32)c(OC)c1OC (stereo not given)
inactive

Identify the outcome logged in this assay for the compound shown: O=C(OCC(O)C(O)COC(=O)c1ccccc1)c1ccccc1 (stereo not given)
active

Identify the outcome logged in this assay for the compound shown: `COc1ccc(-c2nc(-c3ccccc3)no2)c(OC)c1`
active

Identify the outcome logged in this assay for the compound shown: `CN(C)CCNC(=O)/C(=C/c1cccc([N+](=O)[O-])c1)NC(=O)c1ccccc1`
inactive

Identify the outcome logged in this assay for the compound shown: `Cc1cc2oc(C(=O)Nc3c(C)n(C)n(-c4ccccc4)c3=O)c(C)c2cc1Cl`
inactive

Identify the outcome logged in this assay for the compound shown: COc1ccc(C2SCCN2S(=O)(=O)c2ccccc2)cc1OC (stereo not given)
inactive

Identify the outcome logged in this assay for the compound shown: CC1=C(C(=O)Nc2cc(C)ccn2)C(c2cnn(C)c2)C2=C(CC(c3ccccc3)CC2=O)N1 (stereo not given)
inactive

Identify the outcome logged in this assay for the compound shown: N#C/C(C(=O)N1CCOCC1)=C1/SC(Cc2ccc(F)cc2)C(=O)N1c1ccccc1 (stereo not given)
inactive

Identify the outcome logged in this assay for the compound shown: O=C(NN1C(=O)C2C3C=CC(O3)C2C1=O)c1ccncc1 (stereo not given)
inactive

Identify the outcome logged in this assay for the compound shown: `O=C(NC1CC1)c1cccc(Br)c1`
inactive

Identify the outcome logged in this assay for the compound shown: `COc1ccc(OCCNS(=O)(=O)Cc2ccccc2)cc1`
inactive

Identify the outcome logged in this assay for the compound shown: CCCC/S(C)=N/S(=O)(=O)c1ccc(C)cc1 (stereo not given)
inactive

Identify the outcome logged in this assay for the compound shown: `Cc1cc(C)c2c(c1)cc(C)c1nnc(SCC(=O)Nc3cc(C)on3)n12`
active

Identify the outcome logged in this assay for the compound shown: `CC(=O)Nc1ccc(SCC(=O)Nc2ccccc2Oc2ccccc2)cc1`
inactive

Identify the outcome logged in this assay for the compound shown: `Cc1cc(OCCN2CCCC2)ccc1C(C)C`
active

Identify the outcome logged in this assay for the compound shown: `CCOC(=O)c1ccc(N/C(=N/S(=O)(=O)c2ccccc2)c2ccccc2)cc1`
inactive

Identify the outcome logged in this assay for the compound shown: COc1ccc(-c2cc(C(=O)NC(Cc3c[nH]c4ccccc34)C(=O)O)c(C)o2)cc1OC (stereo not given)
inactive

Identify the outcome logged in this assay for the compound shown: NC1=C([N+](=O)[O-])C(c2ccccc2)C2=C(CCCC2=O)O1 (stereo not given)
inactive

Identify the outcome logged in this assay for the compound shown: CC(=O)NC(Cc1ccccc1)C(=O)NC1CCN(c2ncccc2[N+](=O)[O-])CC1 (stereo not given)
inactive

Identify the outcome logged in this assay for the compound shown: `Cc1onc(-c2ccccc2)c1C(=O)N1CCOCC1`
active

Identify the outcome logged in this assay for the compound shown: `COc1ccccc1N1CCN(C(=O)c2c(-c3c(Cl)cccc3Cl)noc2C)CC1`
active

Identify the outcome logged in this assay for the compound shown: COC(=O)NNC(=O)C1CCC(C)CC1 (stereo not given)
inactive

Identify the outcome logged in this assay for the compound shown: CC(C)C1C2=C(CC(C)(C)CC2=O)ON1c1ccccc1 (stereo not given)
active

Identify the outcome logged in this assay for the compound shown: `COc1ccc(C(=O)COC(=O)c2ccc3ccccc3n2)cc1`
active

Identify the outcome logged in this assay for the compound shown: `Cc1ccc(C)c(S(=O)(=O)N2CC(=O)Nc3ccccc32)c1`
active

Identify the outcome logged in this assay for the compound shown: `O=C(NCCN1CCOCC1)[C@H](Cc1ccccc1)N1C(=O)c2ccccc2C1=O`
inactive

Identify the outcome logged in this assay for the compound shown: N/C(=N\c1nc2ccccc2o1)NC(=O)C(Cc1ccccc1)N1C(=O)c2ccccc2C1=O (stereo not given)
active

Identify the outcome logged in this assay for the compound shown: CC1CN(S(=O)(=O)c2ccccc2)C(C)CN1S(=O)(=O)c1ccccc1 (stereo not given)
active

Identify the outcome logged in this assay for the compound shown: `COc1cc(/C=C/C(=O)N2c3ccccc3Sc3ccc(C(F)(F)F)cc32)cc(OC)c1OC`
inactive

Identify the outcome logged in this assay for the compound shown: `CCOc1ccccc1Nc1nnc(SCC(=O)Nc2cc(C)on2)s1`
inactive

Identify the outcome logged in this assay for the compound shown: `CCCC(=O)Nc1ccc(C(=O)N/N=C/c2ccc[nH]2)cc1`
inactive

Identify the outcome logged in this assay for the compound shown: Cc1noc(COc2ccccc2OCC(O)CNC(C)(C)C)n1 (stereo not given)
inactive

Identify the outcome logged in this assay for the compound shown: CCCOc1ccccc1C1CC(=O)Nc2cc3c(cc21)OCO3 (stereo not given)
active

Identify the outcome logged in this assay for the compound shown: CNC(=O)NC(=O)C(OC(=O)c1cccc(S(=O)(=O)N2CCCCC2)c1)c1ccccc1 (stereo not given)
inactive

Identify the outcome logged in this assay for the compound shown: `COc1ccccc1N1CCN(C(=O)c2cc(-c3ccc(Cl)c(Cl)c3)on2)CC1`
inactive

Identify the outcome logged in this assay for the compound shown: `COc1cc(/C=N/NC(=O)Nc2ccccc2)ccc1OCCOc1ccccc1C`
inactive

Identify the outcome logged in this assay for the compound shown: COCCOC(=O)C1=C(C)NC(=O)CC1c1cc2c(cc1Br)OCO2 (stereo not given)
inactive

Identify the outcome logged in this assay for the compound shown: `CN(C)S(=O)(=O)c1ccc(N2CCCC2=O)c([N+](=O)[O-])c1`
inactive

Identify the outcome logged in this assay for the compound shown: `O=C(N/N=C/c1ccccn1)C12CC3CC(CC(C3)C1)C2`
inactive

Identify the outcome logged in this assay for the compound shown: CCc1nnc(NC(=O)C2CCCN2S(=O)(=O)c2ccccc2)s1 (stereo not given)
inactive

Identify the outcome logged in this assay for the compound shown: `Cc1noc(COc2ccccc2OCc2onc(C)c2Cl)c1Cl`
active

Identify the outcome logged in this assay for the compound shown: `Cc1nc2ccccc2cc1OCc1ccc(F)cc1`
inactive

Identify the outcome logged in this assay for the compound shown: `Cc1nc(SCc2ccc(F)cc2)c([N+](=O)[O-])[nH]1`
inactive

Identify the outcome logged in this assay for the compound shown: `Cc1ccc(S(=O)(=O)N2CC(=O)Nc3ccccc32)cc1C`
inactive

Identify the outcome logged in this assay for the compound shown: `CCOc1nc(-c2ccc(OC)cc2)ccc1-c1noc(-c2cc(OC)c(OC)c(OC)c2)n1`
inactive

---

Assay: High Content Assay for Compounds that inhibit the Assembly of the Perinucleolar Compartment;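 further: plate controls were DMSO wells for no effect and camptothecin positive control wells for full effect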
Details: PC3M PTB-GFP, PNC prevalence imaging, 16 h; at 10 µM; stronger effect = lower value
Out of some 140,000 compounds screened, about 4,300 (3.1%) were called active. Another 21% or so got no clear call; they are omitted. The sample as a whole holds a higher share of actives than the screen did.
What activity change (PNC), negative = inhibition was measured for each of the following?
Give just the number in %; leave the unit off.

State, in one line, measured activity change (PNC), negative = inhibition of `c1ccc2[nH]c(NCCN3CCOCC3)nc2c1`
-1.68

State, in one line, measured activity change (PNC), negative = inhibition of `CC(C)CCNC(=O)c1cccnc1Sc1ccccc1`
23.2

State, in one line, measured activity change (PNC), negative = inhibition of `O=C(Cn1c(-c2ccccn2)nc2ccccc21)NCCN1CCOCC1`
42.9

State, in one line, measured activity change (PNC), negative = inhibition of `CCC(=O)Nc1c(C)n[nH]c1C`
0.725

State, in one line, measured activity change (PNC), negative = inhibition of `CC(C)(C)c1ccc(NC(=O)COC(=O)CCc2nc3ccccc3c(=O)[nH]2)cc1`
-24.2

State, in one line, measured activity change (PNC), negative = inhibition of `CCCn1nc(NS(=O)(=O)c2ccccc2)c2cc3cc(C)ccc3nc21`
9.97

State, in one line, measured activity change (PNC), negative = inhibition of `CCCCOc1ccc(C(=O)N/C(=C/C=C/c2ccccc2)C(=O)N2CCOCC2)cc1`
-12.2

State, in one line, measured activity change (PNC), negative = inhibition of `COc1ccc(C(=O)ON=C2c3ccccc3-c3ccccc32)cc1OC`
2.98

State, in one line, measured activity change (PNC), negative = inhibition of `CCOC(=O)NC(=O)C(=CNc1cccc(OC)c1)C(=O)NC(=O)OCC`
45.4

State, in one line, measured activity change (PNC), negative = inhibition of C[N+]1(CC(O)COc2ccccc2)CCN(C(=O)c2ccc([N+](=O)[O-])cc2)CC1 (stereo unspecified)
13

State, in one line, measured activity change (PNC), negative = inhibition of `O=c1c2c(ncn1Cc1ccccc1)nc1n2CCC1`
-8.18
